Tested on: TDP-43 aggregation
ASSAY_EXPLANATION: TDP-43 aggregation assay in SY5Y TDP-43WT cells (high content imaging)
Format: cell-based
SETTINGS: Homo sapiens, tetracycline induction 24 hrs, 1 hour compound pre-treatment, sodium arsenite 23 hrs, 8-point dose curve, percentage of cells with TDP-43 aggregates, read-out: IC50, Inhibition of TDP-43 Aggregation

- MOLECULE: "Cc1cc(-c2ccc(C3CCN(C4CCOCC4)CC3)c(F)c2)sc1C(=O)N1CC[C@H](N)C1"
  IC50: "< 500 nM"
- MOLECULE: "Cc1cc(-c2ccc(C3CCN(C4CCOC4)CC3)c(F)c2)sc1C(=O)N1CC[C@H](N)C1 (stereo partly drawn)"
  IC50: "< 500 nM"
- MOLECULE: "Cc1cc(-c2ccc(C3CCNCC3)cc2)sc1C(=O)N1CC[C@H](N)C1"
  IC50: "500 to 1000 nM"

====

Test system: TDP-43 aggregation
ASSAY_EXPLANATION: TDP-43 aggregation assay in SY5Y TDP-43WT cells (high content imaging)
Type: cell-based
SETTINGS: Homo sapiens, tetracycline induction 24 hrs, 1 hour compound pre-treatment, sodium arsenite 23 hrs, 8-point dose curve, percentage of cells with TDP-43 aggregates, read-out: IC50, Inhibition of TDP-43 Aggregation

- COMPOUND: "Cc1cc(-c2ccc(N3CCN(C)CC3)cc2)sc1C(=O)N1CC[C@H](N)C1"
  IC50: "< 500 nM"
- COMPOUND: "COCCN1CCC(c2ccc(-c3cc(Cl)c(C(=O)N4CC[C@H](N)C4)s3)cc2F)CC1"
  IC50: "< 500 nM"
- COMPOUND: "Cc1cc(-c2ccc(C3CCN(CC4CCCOC4)CC3)cc2)sc1C(=O)N1CC[C@H](N)C1 (stereo partly drawn)"
  IC50: "< 500 nM"
